Kindly supply the reported residual activity values for the records listed here.
ASSAYED_SYSTEM: PIM2 (human)
EXPERIMENT_DESCRIPTION: radiometric filter-binding kinase assay
CONDITION_SET: compound 0.1 µM
Give bare numbers, in %.

Below are worked cases with known answers.
[
  {
    "MOLECULE": "C=CC(=O)N1CCC[C@@H](n2nc(-c3ccc(Oc4ccccc4)cc3)c3c(N)ncnc32)C1",
    "UNIT_LABEL": "%",
    "residual activity": 99
  },
  {
    "MOLECULE": "COc1ccc(-n2ncc3cnc(Nc4cc(OC)c(OC)c(OCCCN5CCN(C)CC5)c4)nc32)cc1",
    "UNIT_LABEL": "%",
    "residual activity": 108
  },
  {
    "MOLECULE": "CN(C)C/C=C/C(=O)Nc1cccc(C(=O)Nc2ccc(Nc3nccc(-c4cccnc4)n3)cc2)c1",
    "UNIT_LABEL": "%",
    "residual activity": 96
  }
]

Parameters: items (list). Returns: residual activity for each item.
1. O=C(Nc1ccccc1-c1cn2c(CN3CCNCC3)csc2n1)c1cnc2ccccc2n1
2. Cc1cc(NC(=O)c2cccc(NC(=O)/C=C/CN(C)C)c2)ccc1Nc1nccc(-c2cccnc2)n1
3. Cn1c(=O)c2c(ncn2C)n(C)c1=O
4. COc1cc(O)c2c(c1)[C@H]1OC1C[C@H](O)[C@H](O)C(=O)/C=C\C[C@H](C)OC2=O (stereo partly drawn)
5. O=C(NCCCNc1nc(Nc2cccc(CN3CCOCC3)c2)ncc1C1CC1)C1CCC1

1. 90
2. 104
3. 113
4. 114
5. 94

* * *

Please respond with reported residual activity for every item in the list.
ASSAYED_SYSTEM: RPS6KA1 KD1 KD2 (human)
EXPERIMENT_DESCRIPTION: radiometric filter-binding kinase assay
CONDITION_SET: compound 0.1 µM
Don't forget the unit after the value.

[
  {
    "COMPOUND": "O=C(Nc1nc2cc(C(F)(F)F)cc(NC3CC3)n2n1)c1cccnc1",
    "residual activity": "102%"
  },
  {
    "COMPOUND": "CNC(=O)C1[C@H]2O[C@@](C)([C@@H]1N)n1c3ccccc3c3c4c(c5c6ccccc6n2c5c31)C(=O)NC4 (stereo partly drawn)",
    "residual activity": "3%"
  },
  {
    "COMPOUND": "c1ccc2c(-c3cnn4cc(-c5ccc(N6CCNCC6)cc5)cnc34)ccnc2c1",
    "residual activity": "86%"
  }
]

Required: residual activity, one value per compound below.
1. COc1cc(O)c2c(c1)/C=C/C[C@H](O)[C@H](O)C(=O)/C=C\C[C@H](C)OC2=O
2. CCCCCc1ccc(/C=C/[C@H](O)[C@@H](CO)NC)cc1
3. Cc1cccc(-c2nn(C(=S)Nc3ccccc3)cc2-c2ccnc3ccccc23)n1
4. C/C(=C1/C(=O)Nc2ccc(NC(N)=O)cc21)c1ccc[nH]1
5. CNc1nc(-c2ccc3c(N)n[nH]c3c2)cc(N2C[C@@H](C(=O)NC3CCCCC3)CC[C@H]2C)n1
6. CCn1c(-c2nonc2N)nc2cncc(CNC3CCNCC3)c21
7. Cc1ccc(-c2ccc3c(ccc4sc5c(c43)NC[C@@H](C)NC5=O)n2)cn1
8. O=C(NCCCNc1nc(Nc2cccc(CN3CCOCC3)c2)ncc1C1CC1)C1CCC1

1. 113%
2. 95%
3. 110%
4. 24%
5. 113%
6. 33%
7. 106%
8. 73%

Please state, for each entry, its recorded residual activity.
1. Cn1c(=O)c2c(ncn2C)n(C)c1=O
2. COc1ccc2c(c1)c1c3c(c4c5ccccc5n(C)c4c1n2CC(O)CN(C)C)C(=O)NC3=O (stereo not drawn)

74%
10%

* * *

ASSAYED_SYSTEM: MAPK14 (human) (UniProt Q16539)
Sequence (Q16539 whole entry, looked up): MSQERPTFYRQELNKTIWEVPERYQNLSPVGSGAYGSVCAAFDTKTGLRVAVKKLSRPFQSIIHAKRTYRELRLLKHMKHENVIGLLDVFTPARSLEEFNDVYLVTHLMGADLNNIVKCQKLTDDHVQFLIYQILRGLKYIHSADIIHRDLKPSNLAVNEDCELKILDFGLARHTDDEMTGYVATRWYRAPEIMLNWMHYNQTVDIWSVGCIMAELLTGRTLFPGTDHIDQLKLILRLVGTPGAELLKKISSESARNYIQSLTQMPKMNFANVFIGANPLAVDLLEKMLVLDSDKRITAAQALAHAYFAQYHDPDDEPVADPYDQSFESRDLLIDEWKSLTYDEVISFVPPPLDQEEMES
EXPERIMENT_DESCRIPTION: radiometric filter-binding kinase assay
CONDITION_SET: compound 10.0 µM
QUANTITY_NAME: residual activity
Include the unit right after the number.

[
  {
    "COMPOUND": "NC(=O)c1cc(-c2ccnc(NC3CCCCC3)c2)nc(N2CCNCC2)c1",
    "OBSERVED_VALUE": "103%"
  },
  {
    "COMPOUND": "O=C(N[C@@H](COc1ccc2[nH]c(=O)[nH]c2c1)c1ccccc1)c1cccn(Cc2ccc(F)c(F)c2)c1=O",
    "OBSERVED_VALUE": "114%"
  },
  {
    "COMPOUND": "NS(=O)(=O)OC[C@@H]1C[C@@H](n2ccc3c(N[C@H]4CCc5ccccc54)ncnc32)C[C@@H]1O",
    "OBSERVED_VALUE": "102%"
  }
]

Hi team, please reply with residual activity for each item in this list.
1. N#Cc1c(C2CCNCC2)cc(-c2c(O)cccc2OCC2CC2)nc1N
2. O=C(NOCC(O)CO)c1ccc(F)c(F)c1Nc1ccc(I)cc1Cl (centres undefined)
3. COc1cc(C(=O)N2CCOCC2)c(F)cc1Nc1ncc(C(F)(F)F)c(NC2CC2)n1
4. Cn1nc(Nc2ccc(F)cc2)c2c(N)ncnc21

1. 91%
2. 97%
3. 119%
4. 80%

Provide the reported residual activity of each entry below, same order.
1. O=C(NOC[C@H](O)CO)c1ccc(F)c(F)c1Nc1ccc(I)cc1Cl
2. O=C(Nc1cccnc1)c1cc(-c2ccnc(F)c2)ccc1OCc1ccccc1
3. Oc1ccc2ccccc2c1SSc1c(O)ccc2ccccc12
4. Cc1ccc2c(c1)C(=O)[C@@]1(O)CCN(c3ccccc3)C1=N2
5. CN1C(=O)[C@@H](Cc2c[nH]c3ccccc23)NC1=S
6. CCCCCc1ccc(/C=C/[C@H](O)[C@@H](CO)NC)cc1
7. Oc1ccc(/C=C/c2cc(O)cc(O)c2)cc1
8. C[C@H]1CCCC(=O)CCC/C=C/c2cc(O)cc(O)c2C(=O)O1

1. 97%
2. 102%
3. 83%
4. 101%
5. 102%
6. 80%
7. 97%
8. 85%

Batch: residual activity for all items listed.
1. NC1(c2ccc(-c3nc4ccn5c(=O)[nH]nc5c4cc3-c3ccccc3)cc2)CCC1
2. CC1=C(CO)C(=O)O[C@@H]([C@@H](C)[C@H]2CC[C@H]3[C@@H]4C[C@H]5O[C@]56[C@@H](O)C=CC(=O)[C@]6(C)C4CC[C@]23C)C1 (some centres undefined)
3. N#Cc1c(O)c2c(-c3ccc(-c4ccccc4O)cc3)csc2[nH]c1=O
4. NC(=O)c1ccc(-c2ccc(Oc3cncc4sc(-c5nn[nH]n5)cc34)cc2)cc1
5. NC(=O)c1c(NC(=O)C2CC2)sc2c1CCCC2
6. O=C(Nc1ccccc1-c1cn2c(CN3CCNCC3)csc2n1)c1cnc2ccccc2n1
7. O=C(O)c1cc(N=Nc2ccc(S(=O)(=O)Nc3ccccn3)cc2)ccc1O

101%
95%
97%
98%
101%
99%
101%

* * *

System: PAK2 (human), Q13177 [T402E]
Sequence (Q13177 whole entry T402E, looked up): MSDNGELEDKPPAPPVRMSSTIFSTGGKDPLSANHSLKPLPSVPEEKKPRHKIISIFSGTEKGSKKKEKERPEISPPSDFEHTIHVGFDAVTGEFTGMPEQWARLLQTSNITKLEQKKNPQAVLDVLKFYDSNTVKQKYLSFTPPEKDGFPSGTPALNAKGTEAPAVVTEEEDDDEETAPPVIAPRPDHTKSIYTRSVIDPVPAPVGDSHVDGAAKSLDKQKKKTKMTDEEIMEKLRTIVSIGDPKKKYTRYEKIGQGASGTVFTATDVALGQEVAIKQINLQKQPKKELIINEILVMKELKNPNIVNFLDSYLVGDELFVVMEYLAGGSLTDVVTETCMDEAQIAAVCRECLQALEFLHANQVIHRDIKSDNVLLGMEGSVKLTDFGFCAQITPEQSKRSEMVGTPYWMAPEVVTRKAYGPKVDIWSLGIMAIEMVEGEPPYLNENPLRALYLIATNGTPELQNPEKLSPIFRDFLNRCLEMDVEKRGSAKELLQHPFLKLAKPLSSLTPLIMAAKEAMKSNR
EXPERIMENT_DESCRIPTION: radiometric filter-binding kinase assay
CONDITION_SET: compound 1.0 µM
# residual activity >= 90% gives condition met, anything below gives condition not met

[
  {
    "COMPOUND": "CC1=C(CO)C(=O)O[C@@H]([C@@H](C)[C@H]2CC[C@H]3[C@@H]4C[C@H]5O[C@]56[C@@H](O)C=CC(=O)[C@]6(C)C4CC[C@]23C)C1 (stereo not given in full)",
    "CLASSIFICATION": "condition met"
  },
  {
    "COMPOUND": "O=C(O)c1cc(N=Nc2ccc(S(=O)(=O)Nc3ccccn3)cc2)ccc1O",
    "CLASSIFICATION": "condition met"
  }
]

Answer whether residual activity of CNc1nc(-c2ccc3c(N)n[nH]c3c2)cc(N2C[C@@H](C(=O)NC3CCCCC3)CC[C@H]2C)n1 is greater than or equal to 90%.
condition met

Does residual activity meet or surpass 90% for C=CC(=O)N1CCC[C@@H](n2nc(-c3ccc(Oc4ccccc4)cc3)c3c(N)ncnc32)C1 ?
condition not met

Can NC(=O)c1cc2c(-c3cccc(-c4ccccc4)c3)cnc(N)c2s1 be said to have residual activity at or above 90%?
condition met

Is the recorded value of residual activity equal to or greater than 90% for this compound? COc1cc(O)c2c(c1)/C=C/C[C@H](O)[C@H](O)C(=O)/C=C\C[C@H](C)OC2=O
condition met

Would you say Cc1cccc(-c2nn(C(=S)Nc3ccccc3)cc2-c2ccnc3ccccc23)n1 shows residual activity at minimum 90%?
condition met

API: above_or_equal(metric=residual activity, cutoff=90%) for item NS(=O)(=O)OC[C@@H]1C[C@@H](n2ccc3c(N[C@H]4CCc5ccccc54)ncnc32)C[C@@H]1O
condition met

Please indicate if the recorded residual activity for Cc1ccc(=O)n(-c2ccccc2)c1 meets or exceeds 90%.
condition met

Check if residual activity >= 90% (inclusive). Item: C=C1C(=O)OC2C1CC/C(C)=C/CCC1(C)OC21 (stereo not given)
condition met

Identify whether the reported residual activity of the following compound is 90% or greater: O=c1c(O)c(-c2ccc(O)c(O)c2)oc2cc(O)c(O)c(O)c12
condition met

In plain terms: is recorded residual activity at least 90% for NC(=O)c1cc(-c2ccnc(NC3CCCCC3)c2)nc(N2CCNCC2)c1 ?
condition met

Does the compound COc1cc(O)c2c(c1)[C@H]1OC1C[C@H](O)[C@H](O)C(=O)/C=C\C[C@H](C)OC2=O (stereo not given in full) have recorded residual activity that is 90% or more?
condition met

Exam item: decide whether the reported residual activity for COc1cc2ncn(-c3cc(OCc4ccccc4S(C)(=O)=O)c(C#N)s3)c2cc1OC is at least 90%.
condition met

Does Cc1ccc(-c2ccc3c(ccc4sc5c(c43)NC[C@@H](C)NC5=O)n2)cn1 have a reported residual activity of at least 90%?
condition met

Textbook exercise: given the entry O=C(Nc1cccnc1)c1cc(-c2ccnc(F)c2)ccc1OCc1ccccc1 , state whether its residual activity is greater than or equal to 90%.
condition met

Record Cc1ccc(Sc2cnc(Nc3cccc(Br)n3)s2)cc1C(=O)N1CCN(C(=O)CN)CC1 ; criterion: residual activity no lower than 90%. Met?
condition not met

Identify whether the reported residual activity of the following compound is 90% or greater: CCNc1nc(Nc2cc(F)c(C(=O)N3CCOCC3)cc2OC)ncc1C(F)(F)F
condition not met

Hello, I need to know if O=C(NOCC(O)CO)c1ccc(F)c(F)c1Nc1ccc(I)cc1Cl (stereo not given) has measured residual activity not below 90%. Thanks!
condition met

From: the kinase profiling compilation of Christmann-Franck et al. (2016)
